Listed below: Efficacy (GABA) % values for each entry.
assay.target: h-GABA-A α2β2γ1 receptor (Homo sapiens (Human), UniProt P47869+Q8N1C3)
test: Two-electrode voltage clamp electrophysiology in Xenopus oocytes expressing GABAA receptors
Format: cell-based
settings: % modulation of GABA EC20 = 100*(Fold increase−1), compound at 30-fold Ki α2β2γ1
Use % as the unit, but write only the number.

# entry.smiles, reading
measured = [
    ("Cc1nnc2n1-c1ccc(C(F)(F)F)c(Cl)c1C(c1nc(O)ccc1Cl)=N[C@H]2C", 84),
    ("C[C@@H]1N=C(c2nc(O)ccc2F)c2c(ccc(C(F)(F)F)c2Cl)-n2nc(C(=O)N3CC(F)C3)nc21", 73),
    ("COC1CN(C(=O)c2nc3n(n2)-c2ccc(C(F)(F)F)c(Cl)c2C(c2cc(O)ccc2F)=NC3)C1", 48),
    ("CN1C(=O)CN=C(c2c(F)ccc(O)c2F)c2c1ccc(Cl)c2Cl", 99),
    ("COC1CN(C(=O)c2nc3n(n2)-c2ccc(Cl)c(Cl)c2C(c2cc(O)ccc2F)=NC3)C1", 65),
    ("Cc1nnc2n1-c1ccc(C(F)(F)F)c(Cl)c1C(c1cc(O)ccc1F)=NC2", 69),
    ("Cc1nnc2n1-c1ccc(Cl)c(Cl)c1C(c1cc(O)ccc1F)=NC2", 67),
    ("Cc1cnc2n1-c1ccc(C(F)(F)F)c(Cl)c1C(c1nc(O)ccc1F)=N[C@H]2C", 68),
]

*Q* Data request, read-out Efficacy (GABA) %, for `Cc1nc2n(n1)-c1ccc(C(F)(F)F)c(Cl)c1C(c1nc(O)ccc1Cl)=N[C@H]2C`
*A* 70

*Q* Another: `Cc1nnc2n1-c1ccc(C(F)(F)F)c(Cl)c1C(c1cc(O)ccc1F)=N[C@H]2C`
*A* 77

*Q* Query `C[C@@H]1N=C(c2nc(O)ccc2F)c2c(ccc(C(F)(F)F)c2Cl)-n2cc(C(=O)N3CCC3)nc21` next
*A* 120

====

assay.target: h-GABA-A α2β2γ1 receptor (Homo sapiens (Human), UniProt P47869+Q8N1C3)
test: Two-electrode voltage clamp electrophysiology in Xenopus oocytes expressing GABAA receptors
Type: cell-based
settings: Xenopus oocytes, GABA EC20, test compound at approx. 30-fold its Ki α2β2γ1
// Fold increase h-GABA-A α2β2γ1 oocyte @ 30-fold Ki lookup, one value per entry
Output: the number by itself.

Past entries and their recorded results:
# compound, reading
data = [
    ("Cc1nc2n(n1)-c1ccc(C(F)(F)F)c(Cl)c1C(c1nc(O)ccc1F)=N[C@H]2C [Example 25]", 1.45),
    ("Cc1nnc2n1-c1ccc(Cl)c(Cl)c1C(c1c(F)ccc(O)c1F)=NC2 [Example 13]", 1.72),
    ("Cc1nnc2n1-c1ccc(C(F)(F)F)c(Cl)c1C(c1nc(O)ccc1F)=N[C@H]2C [Example 20]", 2.20),
    ("Cc1nc2n(n1)-c1ccc(C(F)(F)F)c(Cl)c1C(c1nc(O)ccc1Cl)=N[C@H]2C [Example 29]", 1.70),
    ("O=c1ccn2c(n1)CN=C(c1cc(O)ccc1F)c1c-2ccc(C(F)(F)F)c1Cl [Example 11]", 1.68),
]

*Q* Recorded Fold increase h-GABA-A α2β2γ1 oocyte @ 30-fold Ki for Cc1cnc2n1-c1ccc(C(F)(F)F)c(Cl)c1C(c1nc(O)ccc1Cl)=N[C@H]2C [Example 26] , please?
*A* 1.79

*Q* Continue with CN1C(=O)CN=C(c2cc(O)ccc2F)c2c1ccc(C(F)(F)F)c2Cl [Example 8]
*A* 1.75

*Q* Can you check Cc1ccc2c(c1Cl)C(c1cc(O)ccc1F)=NCC(=O)N2C [Example 2] next?
*A* 1.70

*Q* Repeat with Cc1nnc2n1-c1ccc(Cl)c(Cl)c1C(c1cc(O)ccc1F)=N[C@H]2C [Example 4]
*A* 1.33

*Q* Then COC1CN(C(=O)c2ncn3c2CN=C(c2cc(O)ccc2F)c2c-3ccc(C(F)(F)F)c2Cl)C1 [Example 15] ?
*A* 1.80

*Q* Cool, now Cc1nnc2n1-c1ccc(Cl)c(Cl)c1C(c1cc(O)ccc1F)=NC2 [Example 3]
*A* 1.67

*Q* Proceed to C[C@@H]1N=C(c2cc(O)ccc2F)c2c(ccc(Cl)c2Cl)-n2ccc(=O)nc21 [Example 5]
*A* 1.46

*Q* Another: Cc1cnc2n1-c1ccc(C(F)(F)F)c(Cl)c1C(c1nc(O)ccc1F)=N[C@H]2C [Example 23]
*A* 1.68

*Q* Subsequent entry: Cc1nnc2n1-c1ccc(C(F)(F)F)c(Cl)c1C(c1cc(O)ccc1F)=N[C@H]2C [Example 17]
*A* 1.77

*Q* Quick one: Cc1nnc2n1-c1ccc(C(F)(F)F)c(Cl)c1C(c1nc(O)ccc1Cl)=N[C@H]2C [Example 22]
*A* 1.84

*Q* Repeat with C[C@@H]1N=C(c2nc(O)ccc2F)c2c(ccc(C(F)(F)F)c2Cl)-n2cc(C(=O)N3CCC3)nc21 [Example 30]
*A* 2.20

*Q* And then C[C@@H]1N=C(c2c(F)ccc(O)c2F)c2c(ccc(Cl)c2Cl)-n2ccc(=O)nc21 [Example 18] , what is it?
*A* 1.57

====

assay.target: h-GABA-A α2β2γ1 receptor (Homo sapiens (Human), UniProt P47869+Q8N1C3)
test: Two-electrode voltage clamp electrophysiology in Xenopus oocytes expressing GABAA receptors
Assay type: cell-based
settings: % modulation of GABA EC20 = 100*(Fold increase−1), compound at 30-fold Ki α2β2γ1
result.type: Efficacy (GABA) % (%)
Quick note: give the figure in %, leave out the unit.

# entry.smiles, assay.target, Efficacy (GABA) % / %
rows = [
    ("Cc1nnc2n1-c1ccc(C(F)(F)F)c(Cl)c1C(c1nc(O)ccc1F)=N[C@H]2C", "h-GABA-A α2β2γ1 receptor (Homo sapiens (Human), UniProt P47869+Q8N1C3)", 120),
    ("Cc1nc2n(n1)-c1ccc(C(F)(F)F)c(Cl)c1C(c1nc(O)ccc1F)=N[C@H]2C", "h-GABA-A α2β2γ1 receptor (Homo sapiens (Human), UniProt P47869+Q8N1C3)", 45),
    ("O=c1ccn2c(n1)CN=C(c1cc(O)ccc1F)c1c-2ccc(C(F)(F)F)c1Cl", "h-GABA-A α2β2γ1 receptor (Homo sapiens (Human), UniProt P47869+Q8N1C3)", 68),
    ("COC1CN(C(=O)c2ncn3c2CN=C(c2cc(O)ccc2F)c2c-3ccc(C(F)(F)F)c2Cl)C1", "h-GABA-A α2β2γ1 receptor (Homo sapiens (Human), UniProt P47869+Q8N1C3)", 80),
    ("Cc1ccc2c(c1Cl)C(c1cc(O)ccc1F)=NCC(=O)N2C", "h-GABA-A α2β2γ1 receptor (Homo sapiens (Human), UniProt P47869+Q8N1C3)", 70),
    ("C[C@@H]1N=C(c2c(F)ccc(O)c2F)c2c(ccc(Cl)c2Cl)-n2ccc(=O)nc21", "h-GABA-A α2β2γ1 receptor (Homo sapiens (Human), UniProt P47869+Q8N1C3)", 57),
    ("O=c1ccn2c(n1)CN=C(c1cc(O)ccc1F)c1c-2ccc(Cl)c1Cl", "h-GABA-A α2β2γ1 receptor (Homo sapiens (Human), UniProt P47869+Q8N1C3)", 92),
    ("C[C@@H]1N=C(c2nc(O)ccc2F)c2c(ccc(C(F)(F)F)c2Cl)-n2c1nc1c2CCC1", "h-GABA-A α2β2γ1 receptor (Homo sapiens (Human), UniProt P47869+Q8N1C3)", 64),
    ("Cc1cn2c(n1)[C@H](C)N=C(c1nc(O)ccc1F)c1c-2ccc(C(F)(F)F)c1Cl", "h-GABA-A α2β2γ1 receptor (Homo sapiens (Human), UniProt P47869+Q8N1C3)", 68),
    ("Cc1nnc2n1-c1ccc(Cl)c(Cl)c1C(c1c(F)ccc(O)c1F)=NC2", "h-GABA-A α2β2γ1 receptor (Homo sapiens (Human), UniProt P47869+Q8N1C3)", 72),
]

*Q* h-GABA-A α2β2γ1 receptor (Homo sapiens (Human), UniProt P47869+Q8N1C3) / Efficacy (GABA) % / `CN1C(=O)CN=C(c2cc(O)ccc2F)c2c1ccc(Cl)c2Cl` : value?
*A* 90

*Q* Now this one: `Cc1nnc2n1-c1ccc(Cl)c(Cl)c1C(c1cc(O)ccc1F)=N[C@H]2C`
*A* 33

*Q* # iterate: `CN1C(=O)CN=C(c2cc(O)ccc2F)c2c1ccc(C(F)(F)F)c2Cl`
*A* 75

*Q* Follow-up entry: `Oc1ccc(F)c(C2=NCc3nncn3-c3ccc(C(F)(F)F)c(Cl)c32)c1`
*A* 73

*Q* Now give it for `O=c1ccn2c(n1)CN=C(c1c(F)ccc(O)c1F)c1c-2ccc(Cl)c1Cl` too.
*A* 68

*Q* Another molecule to look at: `C[C@@H]1N=C(c2cc(O)ccc2F)c2c(ccc(Cl)c2Cl)-n2ccc(=O)nc21`
*A* 46

*Q* # repeat for `Cc1cnc2n1-c1ccc(C(F)(F)F)c(Cl)c1C(c1nc(O)ccc1Cl)=N[C@H]2C`
*A* 79
